Please go through the items and note down their Ki.
Target: α2C receptor (Homo sapiens)
Construct: host or cells: LM(tk-) cells, line L-α2C
Sequence (P18825 whole entry): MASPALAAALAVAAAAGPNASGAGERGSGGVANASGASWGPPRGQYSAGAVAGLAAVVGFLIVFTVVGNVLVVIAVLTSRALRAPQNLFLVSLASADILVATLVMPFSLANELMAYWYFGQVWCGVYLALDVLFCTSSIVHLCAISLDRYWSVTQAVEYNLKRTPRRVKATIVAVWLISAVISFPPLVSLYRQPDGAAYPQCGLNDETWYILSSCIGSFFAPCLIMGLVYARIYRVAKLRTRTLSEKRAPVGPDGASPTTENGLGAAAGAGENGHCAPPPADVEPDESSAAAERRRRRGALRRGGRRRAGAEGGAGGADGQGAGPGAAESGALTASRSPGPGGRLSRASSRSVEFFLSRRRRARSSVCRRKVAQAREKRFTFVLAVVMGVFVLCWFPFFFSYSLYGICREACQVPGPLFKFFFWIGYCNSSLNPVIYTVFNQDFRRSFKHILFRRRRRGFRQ
Experiment: Competition binding, [3H]rauwolscine, human α2C receptor
Settings: [3H]rauwolscine, human α2C receptor, LM(tk-) cells; read-out: PKi alpha-2 2c (converted)
Give bare numbers, in nM.

CCOC(=O)C1(c2ccccc2)CCN(CCCNC(=O)C2=C(COCC(F)(F)F)NC(C)=C(C(N)=O)C2c2ccc([N+](=O)[O-])cc2)CC1 (stereo not drawn) [Example 243]
1070
CCOC(=O)C1(c2ccccc2)CCN(CCCNC(=O)C2=C(COCCN)NC(C)=C(C(C)=O)C2c2ccc3c(c2)OCO3)CC1 (stereo not drawn) [Example 244]
97.7

For the next question, use this molecule.
Find the measured Ki: item CCC1=C(C(=O)NN2CCOCC2)C(c2ccc([N+](=O)[O-])cc2)C(C(=O)NCCCN2CCC(c3ccccc3)(c3ccccc3)CC2)=C(COC)N1 (stereo not drawn) [Example 248] , target or system α2C receptor (Homo sapiens).
525

###

Observation Type: melting point

Items follow; give melting point for each.
1. CCC1=C(C(=O)OCCC#N)C(c2ccc([N+](=O)[O-])cc2)C(C(=O)NCCCN2CCC(C#N)(c3ccccc3)CC2)=C(COC)N1 (stereo not drawn) [Example 220]
2. CCOC(=O)C1(c2ccccc2)CCN(CCCNC(=O)C2=C(COCCN=[N+]=[N-])NC(CC)=C(C(N)=O)C2c2ccc([N+](=O)[O-])cc2)CC1 (stereo not drawn) [Example 190]

58 to 68 °C
63 to 64 °C

###

Please go through the items and note down their log10(Ki).
Target: α1B Human Adrenergic Receptor (Homo sapiens, UniProt P35368)
Construct: The entire coding region of α1B (1563 bp); expressed in transfected cells
Sequence (P35368 whole entry): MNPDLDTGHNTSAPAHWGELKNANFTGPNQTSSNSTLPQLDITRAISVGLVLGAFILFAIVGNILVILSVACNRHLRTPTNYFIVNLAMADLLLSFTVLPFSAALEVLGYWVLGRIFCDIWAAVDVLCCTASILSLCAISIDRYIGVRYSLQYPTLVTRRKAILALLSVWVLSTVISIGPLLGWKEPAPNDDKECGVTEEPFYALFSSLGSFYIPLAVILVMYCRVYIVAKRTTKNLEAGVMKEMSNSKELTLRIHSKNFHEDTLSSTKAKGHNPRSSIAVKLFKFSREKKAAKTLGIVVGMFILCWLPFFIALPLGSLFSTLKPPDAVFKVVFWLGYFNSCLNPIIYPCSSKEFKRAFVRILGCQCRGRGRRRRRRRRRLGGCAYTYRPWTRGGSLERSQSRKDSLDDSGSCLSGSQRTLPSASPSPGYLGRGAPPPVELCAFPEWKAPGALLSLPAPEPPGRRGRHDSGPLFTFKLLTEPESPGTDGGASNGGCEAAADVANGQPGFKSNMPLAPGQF
Test: Radioligand binding, [3H]prazosin, cloned human α1B adrenergic receptor
Settings: PKi alpha-1 1b, cloned human receptor, LM(tk-) cell membranes, mean
Protocol: The protocols for these experiments are given below. These cell lines were prepared by transfecting the cloned cDNA or cloned genomic DNA or constructs containing both genomic DNA and cDNA encoding the human α-adrenergic receptors as follows: α1B Human Adrenergic Receptor: […] Transfected cells from culture flasks were scraped into 5 ml of 5 mM Tris-HCl, 5 mM EDTA, pH 7.5, and lysed by sonication. […] Nonspecific binding was determined in the presence of 10 μM phentolamine. […]
Heads up: the numbers are on a log10 scale; they represent Ki in nM.

Use the examples below as a reference point.
CCC1=C(C(=O)O)C(c2ccc([N+](=O)[O-])cc2)C(C(=O)NCCCN2CCC(C#N)(c3ccccc3)CC2)=C(COC)N1 (stereo not drawn)
3.83
COc1ccc(C2(c3ccccc3)CCN(CCCNC(=O)C3=C(COCCN=[N+]=[N-])NC(C)=C(C(N)=O)C3c3ccc([N+](=O)[O-])cc3)CC2)cc1 (stereo not drawn)
2.24
CCC1=C(C(=O)NC)C(c2ccc([N+](=O)[O-])cc2)C(C(=O)NCCCN2CCC(c3ccccc3)(c3ccccc3)CC2)=C(COCCN=[N+]=[N-])N1 (stereo not drawn)
2.42

Items follow; give log10(Ki) for each.
1. CCC1=C(C(=O)NC)C(c2ccc([N+](=O)[O-])cc2)C(C(=O)NCCCN2CCC(c3ccccc3)(c3ccccc3)CC2)=C(CCCCOC)N1 (stereo not drawn)
2. CCC1=C(C(=O)OCCC#N)C(c2ccc([N+](=O)[O-])cc2)C(C(=O)NCCCN2CCC(C#N)(c3ccccc3)CC2)=C(COC)N1 (stereo not drawn)
3. CCC1=C(C(=O)NC)C(c2ccc([N+](=O)[O-])cc2)C(C(=O)NCCCN2CCC(c3ccccc3)(c3ccccc3)CC2)=C(CCCCN)N1 (stereo not drawn)

[2.63, 2.72, 2.79]

###

Biological target: α1C Human Adrenergic Receptor (Homo sapiens)
Construct: The entire coding region of α1C (1401 bp); expressed in transfected cells
Sequence (P35348 whole entry): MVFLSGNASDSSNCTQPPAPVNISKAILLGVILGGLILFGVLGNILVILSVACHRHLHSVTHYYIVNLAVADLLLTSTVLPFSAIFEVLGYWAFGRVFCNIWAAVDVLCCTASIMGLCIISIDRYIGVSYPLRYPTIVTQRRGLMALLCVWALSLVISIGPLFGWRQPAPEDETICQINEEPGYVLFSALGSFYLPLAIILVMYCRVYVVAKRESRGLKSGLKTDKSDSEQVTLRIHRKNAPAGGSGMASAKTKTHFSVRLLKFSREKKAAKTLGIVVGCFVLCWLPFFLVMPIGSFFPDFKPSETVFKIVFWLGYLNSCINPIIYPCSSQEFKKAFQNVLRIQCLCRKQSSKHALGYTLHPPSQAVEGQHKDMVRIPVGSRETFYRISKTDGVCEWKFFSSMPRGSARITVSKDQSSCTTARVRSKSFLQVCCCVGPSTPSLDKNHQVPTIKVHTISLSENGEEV
Test: Radioligand binding, [3H]prazosin, cloned human α1C adrenergic receptor
Settings: cloned human receptor, LM(tk-) cell membranes, mean, read-out: PKi alpha-1 1c (converted)
Please go through the items and note down their Ki.
Give bare numbers, in nM.

CCNC(=O)C1=C(CC)NC(CC)=C(C(=O)NCCCN2CCC(C(=O)OC)(c3ccccc3)CC2)C1c1ccc([N+](=O)[O-])cc1 (stereo not drawn) [Example 180]
3.63
CCOC(=O)C1(c2ccccc2)CCN(CCCNC(=O)C2=C(CC)NC(CC)=C(C(=O)NC)C2c2ccc([N+](=O)[O-])cc2)CC1 (stereo not drawn) [Example 181]
4.07

For the next question, use this compound.
What Ki value was documented for this compound, CCC1=C(C(=O)O)C(c2ccc([N+](=O)[O-])cc2)C(C(=O)NCCCN2CCC(c3ccccc3)CC2)=C(COC)N1 (stereo not drawn) [Example 223] ?
34.7

###

Please go through the items and note down their Ki.
Target: α1A Human Adrenergic Receptor (Homo sapiens)
Construct: The entire coding region of α1A (1719 bp); expressed in transfected cells
Sequence (P25100 whole entry): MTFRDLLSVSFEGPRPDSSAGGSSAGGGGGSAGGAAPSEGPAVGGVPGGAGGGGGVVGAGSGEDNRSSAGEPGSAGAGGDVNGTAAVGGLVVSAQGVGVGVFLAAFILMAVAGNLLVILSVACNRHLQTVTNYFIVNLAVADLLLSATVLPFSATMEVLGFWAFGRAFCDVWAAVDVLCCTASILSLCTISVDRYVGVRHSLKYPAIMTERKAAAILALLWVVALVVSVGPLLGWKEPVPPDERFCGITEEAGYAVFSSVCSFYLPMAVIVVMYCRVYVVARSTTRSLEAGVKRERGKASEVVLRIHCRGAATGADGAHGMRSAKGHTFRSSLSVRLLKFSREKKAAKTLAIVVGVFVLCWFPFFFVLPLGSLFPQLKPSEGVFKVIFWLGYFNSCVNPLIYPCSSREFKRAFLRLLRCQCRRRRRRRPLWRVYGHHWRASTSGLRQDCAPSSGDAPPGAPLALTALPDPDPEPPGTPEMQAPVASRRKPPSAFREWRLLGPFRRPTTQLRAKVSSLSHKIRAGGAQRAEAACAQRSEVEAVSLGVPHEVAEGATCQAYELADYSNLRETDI
Assay: Radioligand binding, [3H]prazosin, cloned human α1A adrenergic receptor
Details: [3H]prazosin, cloned human receptor, LM(tk-) cell membranes; mean; read-out: PKi alpha-1 1a (converted)
Give bare numbers, in nM.

CCC1=C(C(=O)O)C(c2ccc([N+](=O)[O-])cc2)C(C(=O)NCCCN2CCC(c3ccccc3)CC2)=C(COC)N1 (centres unmarked)
891

Items follow; give Ki for each.
1. COC(=O)C1(c2ccccc2)CCN(CCCNC(=O)C2=C(COCCN=[N+]=[N-])NC(C)=C(C(N)=O)C2c2ccc([N+](=O)[O-])cc2)CC1 (centres unmarked)
2. CCC1=C(C(=O)O)C(c2ccc([N+](=O)[O-])cc2)C(C(=O)NCCCN2CCC(C(=O)OC)(c3ccccc3)CC2)=C(COCCN=[N+]=[N-])N1 (centres unmarked)
3. CCNC(=O)C1=C(CC)NC(COCCN=[N+]=[N-])=C(C(=O)NCCCN2CCC(C(=O)OC)(c3ccccc3)CC2)C1c1ccc([N+](=O)[O-])cc1 (centres unmarked)
4. CCOC(=O)C1(c2ccccc2)CCN(CCCNC(=O)C2=C(COCCN=[N+]=[N-])NC(CC)=C(C(N)=O)C2c2ccc([N+](=O)[O-])cc2)CC1 (centres unmarked)
5. CCC1=C(C(=O)NC)C(c2ccc([N+](=O)[O-])cc2)C(C(=O)NCCCN2CCC(C(=O)OC)(c3ccccc3)CC2)=C(CCCCOC)N1 (centres unmarked)
6. CC(=O)C1=C(C)NC(COCCCN)=C(C(=O)NCCCN2CCC(c3ccccc3)(c3ccccc3)CC2)C1c1ccc([N+](=O)[O-])cc1 (centres unmarked)
7. CNC(=O)C1=C(C)NC(C)=C(C(=O)NCCCN2CCC(C(=O)OC)(c3ccccc3)CC2)C1c1ccc2c(c1)OCCO2 (centres unmarked)

1. 501
2. 5130
3. 1780
4. 1350
5. 3980
6. 347
7. 2950

###

Please go through the items and note down their Ki.
Target: α1C Human Adrenergic Receptor (Homo sapiens)
Construct: The entire coding region of α1C (1401 bp); expressed in transfected cells
Experiment: Radioligand binding, [3H]prazosin, cloned human α1C adrenergic receptor
Settings: cloned human receptor in LM(tk-) cell membranes, SEM and n in lines below, read-out: pKi alpha-1 1c (converted)
Where a name gives a salt, the structure may show the parent alone.
Numbers only, in nM.

Items follow; give Ki for each.
1. COC(=O)C1=C(C)NC(c2ccccc2)=C(C(=O)NCCCN2CCC(c3ccccc3)(c3ccccc3)CC2)C1c1ccc([N+](=O)[O-])cc1 (stereo not drawn) [Example 78, hydrochloride hydrate]
2. CC1=C(C(N)=O)C(c2cccc([N+](=O)[O-])c2)C(C(=O)NCCCN2CCC(c3ccccc3)(c3ccccc3)CC2)=C(C)N1 (stereo not drawn)
3. COC(=O)C1=C(C)NC(C)=C(C(=O)NCCCN2CCC(c3ccccc3)(c3ccccc3)CC2)C1c1ccc(Cl)cc1 (stereo not drawn)
4. CCC1=C(C(=O)NCCCN2CCC(c3ccccc3)CC2)C(c2ccc([N+](=O)[O-])cc2)C(C(=O)OC)=C(C)N1 (stereo not drawn) [Example 74, hydrochloride hydrate]
5. COC(=O)C1=C(C)NC(c2ccoc2)=C(C(=O)NCCCN2CCC(c3ccccc3)CC2)C1c1ccc([N+](=O)[O-])cc1 (stereo not drawn) [Example 65, hydrochloride hydrate]
6. CC1=C(C(=O)NCCCN2CCC(c3ccccc3)CC2)C(c2ccc([N+](=O)[O-])cc2)c2c([nH]c(=O)[nH]c2=O)N1 (stereo not drawn)
7. COC(=O)C1=C(C)NC(C)=C(C(=O)NCCCN2CCC(c3ccccc3)(c3ccccc3)CC2)C1c1ccc(Cl)c([N+](=O)[O-])c1 (stereo not drawn)

[4.27, 3.8, 1.78, 0.501, 1.05, 38.9, 5.89]

Items follow; give Ki for each.
1. COC(=O)C1=C(C)NC(C)=C(C(=O)NCCCN2CCC(c3ccccc3)(c3ccccc3)CC2)C1c1ccc([N+](=O)[O-])c(OC)c1 (stereo not drawn)
2. COC(=O)C1=C(C)NC(C)=C(C(=O)NCCCN2CCC(c3ccccc3)(c3ccccc3)CC2)C1c1ccc(-c2ccccc2)cc1 (stereo not drawn)
3. COC(=O)C1=C(C)NC(C)=C(C(=O)NCCCN2CCC(c3ccccc3)(c3ccccc3)CC2)C1c1ccc(OC)c(OC)c1 (stereo not drawn)
4. COC(=O)C1=C(C)NC(C)=C(C(=O)OCCCN(C)C)C1c1ccc([N+](=O)[O-])cc1.Cl (stereo not drawn) [Example 44, hydrochloride]
5. CCC1=C(C(=O)NCCCN2CCC(c3ccccc3)(c3ccccc3)CC2)C(c2ccc([N+](=O)[O-])cc2)C(C(=O)OC)=C(C)N1 (stereo not drawn)

1. 1.48
2. 617
3. 7.08
4. 1700
5. 0.661
